All figures here come from PubChem BioAssay.

molecular target: Calcium-dependent protein kinase 1 (Plasmodium falciparum (isolate 3D7)) (UniProt P62344); assay: PfCDPK1 kinase inhibitors, biochemical, TCAMS library (AID 1159585); details: recombinant PfCDPK1, Kinase-Glo ATP depletion luminescence;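 note: inhibitors leave more ATP so luminescence rises with inhibition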
Sequence (P62344 whole entry, looked up): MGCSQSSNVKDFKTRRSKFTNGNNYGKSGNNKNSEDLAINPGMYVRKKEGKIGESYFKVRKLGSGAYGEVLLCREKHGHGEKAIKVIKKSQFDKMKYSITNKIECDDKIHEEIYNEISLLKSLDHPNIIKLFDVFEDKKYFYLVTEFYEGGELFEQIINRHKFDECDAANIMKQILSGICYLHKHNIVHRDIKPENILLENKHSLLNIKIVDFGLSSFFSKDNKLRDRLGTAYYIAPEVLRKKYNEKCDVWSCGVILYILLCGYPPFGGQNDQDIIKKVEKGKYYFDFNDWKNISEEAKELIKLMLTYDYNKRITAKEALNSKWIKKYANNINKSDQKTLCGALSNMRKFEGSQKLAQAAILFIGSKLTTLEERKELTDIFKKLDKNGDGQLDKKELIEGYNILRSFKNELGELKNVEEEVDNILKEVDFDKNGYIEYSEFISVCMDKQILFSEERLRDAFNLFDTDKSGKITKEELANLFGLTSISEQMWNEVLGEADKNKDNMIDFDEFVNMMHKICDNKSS
Potency and affinity values are given separately. Calls of active or inactive are those of the source. No cut-off is given here; in the data, nearly all actives have IC50 up to about 0.98 µM.
Readout name: outcome

COc1cc2c(cc1C(F)(F)F)N(C(=O)Nc1ccc(Br)cn1)CC2
inactive
Cc1[nH]c(C)c(-c2cccc(Oc3ccc(Cl)cc3)c2)c(=O)c1Br
inactive
CC(C)C[C@H](NC(=O)c1ccc(OCCN2CCOCC2)cc1)C(=O)N[C@H](/C=N/N1CC(=O)NC1=O)CCc1ccccc1
inactive
c1cc(CN2CCCCC2)cc(-c2ccc(-c3nc4ccccc4[nH]3)s2)c1
inactive
O=c1c2ccc(Sc3ccccn3)cc2n(-c2ccccc2)c2cc(Sc3ccccn3)ccc12
inactive

Query string: // lookup outcome for COCCN1CCN(Cc2ccc(-c3cccc(-c4nc5ccccc5[nH]4)c3)cc2)CC1
Result string: inactive

Query string: // lookup outcome for O=C(NCCCCN1CCC(c2ccc3c(c2O)CCCC3)CC1)c1ccc(NC(=O)c2ccc(Cl)cc2)cc1
Result string: inactive

Query string: // lookup outcome for O=C(NC1CCCCC1)N(Cc1cccc(-c2ccc(CNCCc3ccccc3)cc2)c1)C1CCN(Cc2ccccc2)CC1
Result string: inactive

Query string: // lookup outcome for CCOc1ccc(C=CC(=O)Nc2ccc3nc(N4CCOCC4)cc(C)c3c2)cc1OC
Result string: inactive

----------
test: antimalarial activity against Dd2 strain (AID 2302); conditions: P. falciparum Dd2 in RBCs, LDH growth readout, 72 h; at 2 µM
Active and inactive are the calls of the source.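 Rule for the calls: active = growth inhibition above 50% at the single 2 µM test dose, taken to imply half-maximal potency below 2 µM; inactive = the rest.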
In this exercise, the only acceptable responses are active, inactive

Query string: Hi, do you know how CN(C)Cc1ccc(-c2ccc3c(Nc4ccc(Cl)cc4F)ccnc3c2)o1 came out in this test?
Result string: active

Query string: Hi, do you know how COc1ccc2ncc(F)c(CCN3CC[C@H](NCc4cc(C#N)c5c(c4)OCCO5)[C@H](O)C3)c2c1 came out in this test?
Result string: inactive

Query string: Hi, do you know how O=c1[nH]ccc2nc(N[C@@H]3CCNC3)nc(Nc3cc(Cl)cc(Cl)c3)c12 came out in this test?
Result string: active

Query string: Hi, do you know how CN(C(=O)c1cc2c(-c3cncnc3)cccc2[nH]1)c1ccccc1 came out in this test?
Result string: active

Query string: Hi, do you know how CCCCN(CCCC)CCCN(CCCN(CCCC)CCCC)c1cc(C)nc(Nc2ccc(Cl)cc2)n1 came out in this test?
Result string: active

Query string: Hi, do you know how CCOC(=O)c1cn(CC)c2cc(N3CCCCC3)c(F)cc2c1=O came out in this test?
Result string: active

Query string: Hi, do you know how CS(=O)(=O)Nc1cccc(-c2cnc3[nH]cc(-c4ccc(CN)cc4)c3c2)c1 came out in this test?
Result string: active

Query string: Hi, do you know how CCCCCCCN1CC[C@H](CC(=O)Nc2ccnc3ccc(OC)cc23)[C@@H](CC)C1 came out in this test?
Result string: active

Query string: Hi, do you know how COc1ccc2c(CNCCCCCCNCc3c(OC)ccc4cc(OC)ccc34)c(OC)ccc2c1 came out in this test?
Result string: active

Query string: Hi, do you know how CN1CCN(c2ccc3nc(-c4ccc5nc(-c6ccc([N+](=O)[O-])c(N)c6)[nH]c5c4)[nH]c3c2)CC1 came out in this test?
Result string: active

Query string: Hi, do you know how CCC[C@@H]([C@@H](CC1CCCCC1)C(=O)N[C@H](C(=O)Nc1nccs1)C(C)(C)SCCOCCOCC)N(O)C=O came out in this test?
Result string: active

Query string: Hi, do you know how CN1CCN(Cc2cccc(-c3ccc4c(Nc5cc(O)c(Cl)cc5F)ccnc4c3)c2)CC1 came out in this test?
Result string: active

Query string: Hi, do you know how Cc1cccc2[nH]c(-c3cccc(-c4cccc(NC(=O)c5ccc(C(N)=O)cc5)c4)c3)nc12 came out in this test?
Result string: inactive

Query string: Hi, do you know how O=C(/C=C/c1c(Cl)cccc1Cl)NC1CCC(CN2CCC(Cc3cc4ccccc4[nH]3)CC2)CC1 (centres undefined) came out in this test?
Result string: inactive

Query string: Hi, do you know how O=C(Nc1ccc(-c2nc3ccc(NC(=O)c4ccc(Br)cc4)cc3[nH]2)cc1)c1ccc(Br)cc1 came out in this test?
Result string: inactive

Query string: Hi, do you know how COc1ccc(O)c(-c2sc(N=C(N)N)nc2-c2ccccc2)c1 came out in this test?
Result string: active

Query string: Hi, do you know how NCC(=O)NC12CC3CC(CC(C3)C1)C2 came out in this test?
Result string: inactive

Query string: Hi, do you know how CCCN(c1ccc(C(F)(F)F)cc1[N+](=O)[O-])S(=O)(=O)C(c1ccccc1)c1ccc(C(F)(F)F)cc1[N+](=O)[O-] (centres undefined) came out in this test?
Result string: inactive

Query string: Hi, do you know how COc1ccc2c(c1)CCN(CCN1CCC(CNC(=O)c3ccc(-c4ccc(C#N)cc4)cc3)CC1)C2 came out in this test?
Result string: active

----------
test system: F380Y/beta1; experiment: modulators of BK channel variants, profiling panel, selectivity assay, cell-based, U2OS BacMam, thallium flux, beta subunits (AID 1259406); settings: at 30 µM;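 note: initial slope of Thallos dye fluorescence rise after thallium is added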
Active and inactive are the calls of the source.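 How the source made its calls: active means thallium flux through the channel raised or lowered by more than 3 SD from vehicle-only wells, actives on both sides; inactive means the rest.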
In this exercise, the only acceptable responses are active, inactive

Query string: Hi, do you know how NC(C=Cc1cc(C(F)(F)F)cc(C(F)(F)F)c1)=NOC(=O)c1c(F)cccc1F came out in this test?
Result string: inactive

Query string: Hi, do you know how Cc1onc(-c2ccccc2)c1C(=O)NC1C(=O)N2C1SC(C)(C)C2C(=O)O (stereo not given) came out in this test?
Result string: inactive

Query string: Hi, do you know how Cc1cc(S(=O)(=O)c2ccc(Cl)cc2)sc1C(=O)NCC(O)c1ccccc1 (stereo not given) came out in this test?
Result string: inactive

Query string: Hi, do you know how Cc1cc(NS(=O)(=O)c2ccc(NC(=O)c3nccnc3C(=O)O)cc2)no1 came out in this test?
Result string: inactive

Query string: Hi, do you know how O=C1CSCC(=O)N1c1csc(C(F)(F)F)c1-c1ccccc1 came out in this test?
Result string: active

----------
test: growth inhibition of DIPG glioma cells, dose response, cell-based, SU-DIPG-XVII, MIPE5.0, CellTiter-Glo, qHTS (AID 1347060); conditions: SU-DIPG-XVII viability, CellTiter-Glo ATP luminescence;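 for AC50: cells exposed to compound for 48 hours before viability readout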
Records with an inconclusive call do not appear. Calls of active or inactive are those of the source. No cut-off is given here; in the data, nearly all actives have AC50 up to about 26 µM. Numbered stars: 1 amine (or outer) side, 2 acyl side, 3 side chain; on linkers, the order of the positions; unused ones are H or OH. Bridge positions count the residues as written; N and C are the ends. Square brackets hold non-standard residues; d marks the D form. Peptide text beside a SMILES is read from it. I, II: the chains in the order shown. Actinocin(9to1) = Cc1c2oc3c(C)ccc(C(=O)[*:1])c3nc-2c(C(=O)[*:2])c(N)c1=O; NMeV = CN[CH](C(=O)O)C(C)C; Sar = CNCC(=O)O
In this exercise, the only acceptable responses are active, inactive

Query string: Hi, do you know how CCOc1ccc(Nc2nc(-c3c(C)nc4ccccn34)cs2)cc1 came out in this test?
Result string: active

Query string: Hi, do you know how CCOC(=O)C1=C(N)Oc2ccc(Br)cc2C1C(C#N)C(=O)OCC (configuration not stated) came out in this test?
Result string: active

Query string: Hi, do you know how CC(=O)NC(CS)C(=O)O (configuration not stated) came out in this test?
Result string: inactive

Query string: Hi, do you know how O=C(O)C1CCCN(CCC=C(c2ccccc2)c2ccccc2)C1 (configuration not stated) came out in this test?
Result string: inactive

Query string: Hi, do you know how COC1CCC(C(=O)c2ccc3nc4c(cc3c2)CCCO4)CC1 (configuration not stated) came out in this test?
Result string: inactive

Query string: Hi, do you know how COc1cccc(-c2cc(=O)c3ccccc3o2)c1N came out in this test?
Result string: inactive

Query string: Hi, do you know how CC(C)[C@H](CO)Nc1nc(Nc2ccc(C(=O)O)c(Cl)c2)c2ncn(C(C)C)c2n1 came out in this test?
Result string: inactive

Query string: Hi, do you know how O=c1[nH]nc(Sc2ncc([N+](=O)[O-])s2)n1-c1ccc2c(c1)OCCO2 came out in this test?
Result string: active

Query string: Hi, do you know how OC[C@@H](O)[C@@H](O)[C@H](O)[C@@H](O)CO came out in this test?
Result string: inactive

Query string: Hi, do you know how Cc1c2oc3c(C)ccc(C(=O)NC4C(=O)NC(C(C)C)C(=O)N5CCCC5C(=O)N(C)CC(=O)N(C)C(C(C)C)C(=O)OC4C)c3nc-2c(C(=O)NC2C(=O)NC(C(C)C)C(=O)N3CCCC3C(=O)N(C)CC(=O)N(C)C(C(C)C)C(=O)OC2C)c(N)c1=O (configuration not stated) (I: TVP[Sar][NMeV] / II: TVP[Sar][NMeV]; ester I:1-I:C, II:1-II:C; linker I:N-II:N via Actinocin(9to1); configuration not given here) came out in this test?
Result string: active

Query string: Hi, do you know how CC[C@@]1(O)C(=O)OCc2c1cc1n(c2=O)Cc2cc3cc(O)ccc3nc2-1 came out in this test?
Result string: active

Query string: Hi, do you know how N#C[C@@H]1C[C@@H]2C[C@@H]2N1C(=O)[C@@H](N)C12CC3CC(CC(O)(C3)C1)C2 came out in this test?
Result string: inactive

Query string: Hi, do you know how CCCCC[C@H](O)/C=C/[C@H]1[C@H](O)CC(=O)[C@@H]1CCCCCCC(=O)O came out in this test?
Result string: inactive

Query string: Hi, do you know how Nc1ncnc2nc(-c3ccc(N4CCOCC4)nc3)cc(-c3cccc(Br)c3)c12 came out in this test?
Result string: inactive

Query string: Hi, do you know how CCC(C)N(C)C(=O)c1cc2ccccc2c(-c2ccccc2Cl)n1 (configuration not stated) came out in this test?
Result string: inactive

Query string: Hi, do you know how CC(C)N(CCC(=O)c1ccc2ccccc2c1)Cc1ccccc1 came out in this test?
Result string: active

Query string: Hi, do you know how CN[C@@H]1[C@H](O[C@H]2[C@H](O[C@@H]3[C@@H](O)[C@H](O)[C@@H](N=C(N)N)[C@H](O)[C@H]3N=C(N)N)O[C@@H](C)[C@]2(O)C=O)O[C@@H](CO)[C@H](O)[C@H]1O came out in this test?
Result string: inactive
